Target: DNA methyltransferases 1 (DNMT1) (Homo sapiens, UniProt P26358)
Sequence (P26358 whole entry): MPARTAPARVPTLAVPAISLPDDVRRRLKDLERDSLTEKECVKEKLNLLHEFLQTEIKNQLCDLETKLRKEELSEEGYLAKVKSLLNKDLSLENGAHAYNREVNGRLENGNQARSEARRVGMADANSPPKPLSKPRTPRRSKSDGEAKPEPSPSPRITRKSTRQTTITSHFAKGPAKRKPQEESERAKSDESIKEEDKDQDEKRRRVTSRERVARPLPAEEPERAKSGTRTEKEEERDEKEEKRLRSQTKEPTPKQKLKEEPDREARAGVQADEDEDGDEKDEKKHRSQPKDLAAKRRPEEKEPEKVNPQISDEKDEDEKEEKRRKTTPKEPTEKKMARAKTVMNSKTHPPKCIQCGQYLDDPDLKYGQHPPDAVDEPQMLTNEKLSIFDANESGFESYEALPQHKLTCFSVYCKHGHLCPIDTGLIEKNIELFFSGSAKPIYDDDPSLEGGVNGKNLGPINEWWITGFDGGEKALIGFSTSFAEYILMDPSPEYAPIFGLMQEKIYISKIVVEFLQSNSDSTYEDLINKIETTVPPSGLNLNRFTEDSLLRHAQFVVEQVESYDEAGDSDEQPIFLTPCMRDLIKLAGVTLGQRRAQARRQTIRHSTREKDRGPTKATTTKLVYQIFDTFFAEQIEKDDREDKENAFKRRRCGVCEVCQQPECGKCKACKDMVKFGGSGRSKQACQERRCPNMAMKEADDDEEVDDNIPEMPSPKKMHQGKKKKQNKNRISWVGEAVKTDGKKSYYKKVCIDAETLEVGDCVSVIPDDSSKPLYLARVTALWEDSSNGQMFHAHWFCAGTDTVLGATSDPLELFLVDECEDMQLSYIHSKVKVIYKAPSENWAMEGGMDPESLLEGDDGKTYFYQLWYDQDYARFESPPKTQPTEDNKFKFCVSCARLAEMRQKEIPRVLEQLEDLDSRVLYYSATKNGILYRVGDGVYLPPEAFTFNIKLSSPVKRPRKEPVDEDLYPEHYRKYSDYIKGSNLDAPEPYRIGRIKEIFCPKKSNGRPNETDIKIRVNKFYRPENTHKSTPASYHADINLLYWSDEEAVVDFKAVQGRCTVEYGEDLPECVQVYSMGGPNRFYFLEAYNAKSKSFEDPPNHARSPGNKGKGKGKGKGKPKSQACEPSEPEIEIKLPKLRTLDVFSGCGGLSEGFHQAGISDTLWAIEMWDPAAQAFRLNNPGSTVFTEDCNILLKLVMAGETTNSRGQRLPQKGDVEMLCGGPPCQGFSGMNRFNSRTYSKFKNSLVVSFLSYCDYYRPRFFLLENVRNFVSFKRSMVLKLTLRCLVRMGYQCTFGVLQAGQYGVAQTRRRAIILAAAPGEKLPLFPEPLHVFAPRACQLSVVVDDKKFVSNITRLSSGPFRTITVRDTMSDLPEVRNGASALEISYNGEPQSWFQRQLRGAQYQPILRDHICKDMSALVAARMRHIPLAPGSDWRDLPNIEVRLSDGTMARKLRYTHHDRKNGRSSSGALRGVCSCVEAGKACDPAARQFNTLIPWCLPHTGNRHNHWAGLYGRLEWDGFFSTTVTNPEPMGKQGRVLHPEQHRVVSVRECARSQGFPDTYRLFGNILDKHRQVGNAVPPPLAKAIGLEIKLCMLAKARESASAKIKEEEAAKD
Assay: radiometric methyltransferase assay with recombinant enzyme, poly(dI-dC) and 3H-SAM; activation at low, inhibition at higher concentration (IC50 […])

compound | EC50, µM
C[C@H](CCC[C@@H](C)[C@H]1CC[C@H]2[C@@H]3CC=C4C[C@@H](O)CC[C@]4(C)[C@H]3CC[C@]12C)C(=O)O [CA, Cholestenoic acid] | 1.99

* * *

Target: DNMT3a (Homo sapiens)
Sequence (Q9Y6K1 whole entry, looked up): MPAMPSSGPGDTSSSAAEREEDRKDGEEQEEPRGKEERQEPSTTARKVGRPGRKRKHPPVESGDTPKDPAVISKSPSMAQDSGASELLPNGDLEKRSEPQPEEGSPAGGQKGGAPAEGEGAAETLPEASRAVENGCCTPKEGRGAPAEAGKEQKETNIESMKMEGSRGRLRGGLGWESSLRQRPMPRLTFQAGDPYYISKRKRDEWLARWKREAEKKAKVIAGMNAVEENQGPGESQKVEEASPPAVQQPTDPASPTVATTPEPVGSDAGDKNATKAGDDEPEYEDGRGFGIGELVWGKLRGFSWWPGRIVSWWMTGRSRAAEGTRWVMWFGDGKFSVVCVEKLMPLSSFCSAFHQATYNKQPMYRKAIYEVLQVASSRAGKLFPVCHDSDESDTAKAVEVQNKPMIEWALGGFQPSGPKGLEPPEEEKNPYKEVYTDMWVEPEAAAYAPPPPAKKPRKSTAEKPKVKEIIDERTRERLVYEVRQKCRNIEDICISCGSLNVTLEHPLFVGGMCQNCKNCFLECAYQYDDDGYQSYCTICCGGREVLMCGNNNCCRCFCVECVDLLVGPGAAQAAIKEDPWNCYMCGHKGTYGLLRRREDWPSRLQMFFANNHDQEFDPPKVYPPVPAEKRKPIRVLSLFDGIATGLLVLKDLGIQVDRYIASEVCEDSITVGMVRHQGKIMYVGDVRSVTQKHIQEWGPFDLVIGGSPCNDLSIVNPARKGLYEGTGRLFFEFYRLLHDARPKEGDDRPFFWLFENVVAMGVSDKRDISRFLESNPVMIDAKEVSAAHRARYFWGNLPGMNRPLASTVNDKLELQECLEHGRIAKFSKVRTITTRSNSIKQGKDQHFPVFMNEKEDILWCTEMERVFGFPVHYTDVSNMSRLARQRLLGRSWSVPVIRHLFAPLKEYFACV
Assay: radiometric methyltransferase assay with recombinant enzyme, Lambda DNA substrate and 3H-SAM
pIC50: −log10 of the molar value.

query_smiles | target_under_test | pIC50
C[C@H](CCC[C@@H](C)[C@H]1CC[C@H]2[C@@H]3CC=C4C[C@@H](O)CC[C@]4(C)[C@H]3CC[C@]12C)C(=O)O | DNMT3a (Homo sapiens) | 5.08
